# pEC50 per record follows
# TARGET OF ASSAY: T1, Placenta Growth Factor (PlGF), human (human, UniProt P49763 21-149)
# T1 chain: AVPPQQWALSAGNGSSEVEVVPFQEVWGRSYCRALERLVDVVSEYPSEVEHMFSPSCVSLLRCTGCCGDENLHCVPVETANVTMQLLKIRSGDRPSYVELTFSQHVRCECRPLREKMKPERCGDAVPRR
# ASSAY INFO: ELISA
Entry type: numeric. Quantity: pEC50, the -log10 of concentration in molar units.

BINDER	NUMERIC READOUT
HC 5/SLC 8 (antibody) chain 1: GQGTLVTVSSASTKGQPVLHQPPAMSSALGTTIRLTCTLRNDHDIGVYSVYWYQQRPGHPPRFLLRYFSQSDKSQGPQVPPRFSGSKDVARNRGYLSISELQPEDEAMYYCAMGARSRCWPRGFQSKHNSVTHVFGSGTQLTVLSQPKATPSVTLFPPSSEELQANKATLVCLMNDFYPGILTVTWKADGTPITQGVEMTTPSKQSNNKYAASSYLSLTPEQWRSRRSYSCQVMHEGSTVEKTVAPAECS chain 2: MSWAPVLLMLFVYCTGCGPQPVLHQPPAMSSALGTTIRLTCTLRNDHDIGVYSVYWYQQRPGHPPRFLLRYFSQSDKSQGPQVPPRFSGSKDVARNRGYLSISVTHVFGSGTQLTVLSQPKATPSQVQLVQ	9.94
HC 5/SLC 6 (antibody) chain 1: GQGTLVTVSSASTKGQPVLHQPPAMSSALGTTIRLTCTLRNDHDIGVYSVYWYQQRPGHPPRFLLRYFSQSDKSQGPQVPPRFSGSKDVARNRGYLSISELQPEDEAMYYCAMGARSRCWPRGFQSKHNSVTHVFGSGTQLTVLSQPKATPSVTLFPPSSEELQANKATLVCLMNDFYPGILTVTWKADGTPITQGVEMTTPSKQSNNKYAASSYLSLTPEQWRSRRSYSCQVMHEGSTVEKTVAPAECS chain 2: MSWAPVLLMLFVYCTGCGPQPVLHQPPAMSSALGTTIRLTCTLRNDHDIGVYSVYWYQQRPGHPPRFLLRYFSQSDKSQGPQVPPRFSGSKDVARNRGYLSISVTHVFGSGTQLTVLSQPKATQVQLVQ	9.80

Now examine the next entry.
pEC50 recorded for this binder, HC 9/SLC 2 (antibody) chain 1: GQGTLVTVSSASTKGPSVFQPVLHQPPAMSSALGTTIRLTCTLRNDHDIGVYSVYWYQQRPGHPPRFLLRYFSQSDKSQGPQVPPRFSGSKDVARNRGYLSISELQPEDEAMYYCAMGARSRCWPRGFQSKHNSVTHVFGSGTQLTVLSQPKATPSVTLFPPSSEELQANKATLVCLMNDFYPGILTVTWKADGTPITQGVEMTTPSKQSNNKYAASSYLSLTPEQWRSRRSYSCQVMHEGSTVEKTVAPAECS chain 2: MSWAPVLLMLFVYCTGCGPQPVLHQPPAMSSALGTTIRLTCTLRNDHDIGVYSVYWYQQRPGHPPRFLLRYFSQSDKSQGPQVPPRFSGSKDVARNRGYLSISVTHVFGSGTQLTVLSQQVQLVQ , is 9.68
